species on record: Rattus norvegicus; experiment: Open TG-GATES - Regimen: Single; type: toxicity, organism-based, Sprague-Dawley; design: regimen Single, gender Male, age 6 weeks; details: in vivo, po, 0 mg/kg, 3 h, tissue Plasma, route gavage, dose level Control
Overview of recorded log10(TBIL) for various compounds
The figures below represent log10 of TBIL, where TBIL is stated in mg/dL.

Answered examples (5):
compound="C[C@]12CCC(=O)C=C1CC[C@@H]1[C@@H]2CC[C@@]2(C)[C@H]1CC[C@]2(C)O [METHYLTESTOSTERONE]" quantityname=log10(TBIL) measuredresult=-1.42
compound="CC(=N)S [THIOACETAMIDE]" quantityname=log10(TBIL) measuredresult=-0.40
compound="CC(=O)Oc1cc(C(C)C)c(OCCN(C)C)cc1C [MOXISYLYTE]" quantityname=log10(TBIL) measuredresult=-1.70
compound="CC(C)(S)[C@@H](N)C(=O)O [PENICILLAMINE]" quantityname=log10(TBIL) measuredresult=-1.49
compound=Nc1nc(N)c2nc(-c3ccccc3)c(N)nc2n1 quantityname=log10(TBIL) measuredresult=-1.22

# input Please give measured log10(TBIL) of the following entry: C[C@](N)(Cc1ccc(O)c(O)c1)C(=O)O [METHYLDOPA]
# output -1.10

# input Let me know recorded log10(TBIL) for CC(C)C(=O)Nc1ccc([N+](=O)[O-])c(C(F)(F)F)c1 [FLUTAMIDE] , thanks.
# output -0.40

All figures here come from ChEMBL document CHEMBL3885861.
